Source listed as patent US20150150960A1.

# SUBJECT OF TEST: HLA A*0201 (human)
# ASSAY TEXT: peptide-HLA binding, inhibition of radiolabeled probe
Quick reference: pIC50 of the listed items.
// pIC50 here means minus log10 of the molar concentration (mol/L)

TLMAMDLGEL; 7.82
MMMLPATLA; 7.55
VTYECPLLV; 7.57

Could you now consider this next binder?
Qu. Specify reported pIC50 for the binder shown: `LMMMLPATLA`
Ans. 7.85
